Values were extracted from patent US20250171542A1.

tested_system: human PD-L1 expressed on cell surface (human, UniProt Q9NZQ7 19-290)
Sequence (Q9NZQ7 19-290 limits assumed): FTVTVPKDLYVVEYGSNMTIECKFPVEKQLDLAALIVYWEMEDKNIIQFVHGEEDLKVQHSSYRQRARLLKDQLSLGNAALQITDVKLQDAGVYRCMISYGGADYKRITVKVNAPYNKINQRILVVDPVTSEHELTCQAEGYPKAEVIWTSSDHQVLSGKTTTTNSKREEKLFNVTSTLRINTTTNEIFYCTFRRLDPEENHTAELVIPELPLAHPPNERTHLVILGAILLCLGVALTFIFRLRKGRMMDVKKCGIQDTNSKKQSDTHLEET
assay_protocol: cell-based or functional assay
Outcome label depends on Internalization (%), FACS, 0.5 µg/ml, 4 h relative to 20%: at/above gives class 1, below gives class 0.

INSERT INTO measurements (binder, category_label) VALUES
  ('33E8 (antibody, human IgG1, V domains shown) VH: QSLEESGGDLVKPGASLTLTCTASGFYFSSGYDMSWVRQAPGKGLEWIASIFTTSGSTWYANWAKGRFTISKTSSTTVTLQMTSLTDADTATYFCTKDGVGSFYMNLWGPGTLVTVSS VL: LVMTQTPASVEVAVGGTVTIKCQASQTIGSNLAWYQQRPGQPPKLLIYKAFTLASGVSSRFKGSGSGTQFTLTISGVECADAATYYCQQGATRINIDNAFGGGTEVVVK', 'class 1'),
  ('56H3 (antibody, human IgG1, V domains shown) VH: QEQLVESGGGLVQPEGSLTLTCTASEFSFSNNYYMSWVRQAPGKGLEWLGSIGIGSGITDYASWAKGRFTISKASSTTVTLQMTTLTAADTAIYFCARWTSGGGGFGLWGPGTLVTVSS VL: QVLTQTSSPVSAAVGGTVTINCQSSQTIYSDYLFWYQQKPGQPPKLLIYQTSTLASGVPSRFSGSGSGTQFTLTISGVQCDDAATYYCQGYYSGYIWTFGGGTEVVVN', 'class 0'),
  ('32E2 (antibody, human IgG1, V domains shown) VH: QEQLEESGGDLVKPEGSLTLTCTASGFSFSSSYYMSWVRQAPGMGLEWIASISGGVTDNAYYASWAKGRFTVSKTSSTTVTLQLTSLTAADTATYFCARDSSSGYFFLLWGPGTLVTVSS VL: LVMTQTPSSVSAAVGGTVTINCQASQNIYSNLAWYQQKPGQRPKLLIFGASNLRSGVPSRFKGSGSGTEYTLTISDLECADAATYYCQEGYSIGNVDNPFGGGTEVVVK', 'class 0'),
  ('74F4 (antibody, human IgG1, V domains shown) VH: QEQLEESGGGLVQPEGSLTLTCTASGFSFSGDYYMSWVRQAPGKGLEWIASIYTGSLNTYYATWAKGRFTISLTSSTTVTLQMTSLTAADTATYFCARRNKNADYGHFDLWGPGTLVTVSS VL: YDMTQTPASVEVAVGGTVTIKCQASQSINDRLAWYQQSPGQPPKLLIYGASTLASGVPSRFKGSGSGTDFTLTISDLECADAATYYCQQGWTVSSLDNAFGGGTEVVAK', 'class 0');
